src = the supplement of paper PMC10065799

Tested on: c-Abl (mouse)
Test: phosphorylation enrichment, bacterial display (enrichment ratio); higher = better substrate or ligand; peptides without Tyr show the background;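 further: 11-residue human phosphosite peptides and single-mutation variants displayed on the E. coli surface, counted by deep sequencing, each peptide's frequency after selection divided by its frequency in the unselected input library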;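 further: frequency after pTyr selection over input frequency; kinase dosed for 20-30% of maximal phosphorylation in three min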
Where phosphorylation enrichment equals or exceeds 0.7, the correct label is condition met; where it does not, the label is condition not met.

Illustrative cases are given below, each with its answer.
LADKPYTFEDY [FXN_Y118]: condition met
PVQAADQKVVA [HBB_Y131_Y131D]: condition met
SLGSPYEQPPR [PDLIM4_Y137_G138E]: condition met
EFNINYNNELP [THG1L_Y228]: condition not met

With those in mind, consider the next sequence.
Hello, I need to know if LRRFIYRPPDQ [OTOF_Y1231_R1236Q] has measured phosphorylation enrichment not below 0.7. Thanks!
condition not met

====

As shown below, each of these sequences has a reported phosphorylation enrichment value.
Target: Fyn (UniProt P06241)
Sequence (P06241 whole entry, looked up): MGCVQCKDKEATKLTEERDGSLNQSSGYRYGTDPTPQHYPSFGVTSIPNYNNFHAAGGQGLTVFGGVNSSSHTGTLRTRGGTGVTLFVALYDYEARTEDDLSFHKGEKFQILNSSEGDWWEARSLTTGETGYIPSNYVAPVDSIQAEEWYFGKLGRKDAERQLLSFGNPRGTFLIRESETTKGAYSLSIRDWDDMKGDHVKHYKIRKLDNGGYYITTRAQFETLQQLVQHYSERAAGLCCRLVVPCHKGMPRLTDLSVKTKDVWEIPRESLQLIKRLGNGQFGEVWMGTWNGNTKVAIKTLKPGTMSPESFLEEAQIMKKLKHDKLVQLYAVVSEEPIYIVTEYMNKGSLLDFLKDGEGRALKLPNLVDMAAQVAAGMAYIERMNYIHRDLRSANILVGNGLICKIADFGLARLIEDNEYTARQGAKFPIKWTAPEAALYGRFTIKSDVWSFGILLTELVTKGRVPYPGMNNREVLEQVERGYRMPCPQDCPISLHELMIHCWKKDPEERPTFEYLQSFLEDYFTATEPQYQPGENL
Assay: phosphorylation enrichment, bacterial display (enrichment ratio); higher = better substrate or ligand; peptides without Tyr show the background
The response must contain the number and no unit.

LIHTKCPQLLP [AHCY_Y143_Y143C]: 0.438

Answer with the recorded phosphorylation enrichment for the sequence listed here: EEGNPYFSSAR [MCCC2_Y520_YF]
0.61

Answer with the recorded phosphorylation enrichment for the sequence listed here: QLPRGYISILV [BAG3_Y205_P209L]
0.563

Answer with the recorded phosphorylation enrichment for the sequence listed here: GIPIQYPIISE [NOG_Y222_W217G]
0.541

Answer with the recorded phosphorylation enrichment for the sequence listed here: QDEHGYISRCF [HSPB1_Y133]
0.741

Answer with the recorded phosphorylation enrichment for the sequence listed here: QGFDTYFGFLL [ARSB_Y165_R160Q_YF]
11.4

Answer with the recorded phosphorylation enrichment for the sequence listed here: SAPPSYEETVA [LITAF_Y23]
0.645

Answer with the recorded phosphorylation enrichment for the sequence listed here: QCTSHYPEHVC [SART3_Y541_D540H]
0.666

Answer with the recorded phosphorylation enrichment for the sequence listed here: KDFTIHNPNLL [VANGL1_Y290_Y290H]
0.369

====

Target: FGFR3 (UniProt P22607)
Sequence (P22607 whole entry, looked up): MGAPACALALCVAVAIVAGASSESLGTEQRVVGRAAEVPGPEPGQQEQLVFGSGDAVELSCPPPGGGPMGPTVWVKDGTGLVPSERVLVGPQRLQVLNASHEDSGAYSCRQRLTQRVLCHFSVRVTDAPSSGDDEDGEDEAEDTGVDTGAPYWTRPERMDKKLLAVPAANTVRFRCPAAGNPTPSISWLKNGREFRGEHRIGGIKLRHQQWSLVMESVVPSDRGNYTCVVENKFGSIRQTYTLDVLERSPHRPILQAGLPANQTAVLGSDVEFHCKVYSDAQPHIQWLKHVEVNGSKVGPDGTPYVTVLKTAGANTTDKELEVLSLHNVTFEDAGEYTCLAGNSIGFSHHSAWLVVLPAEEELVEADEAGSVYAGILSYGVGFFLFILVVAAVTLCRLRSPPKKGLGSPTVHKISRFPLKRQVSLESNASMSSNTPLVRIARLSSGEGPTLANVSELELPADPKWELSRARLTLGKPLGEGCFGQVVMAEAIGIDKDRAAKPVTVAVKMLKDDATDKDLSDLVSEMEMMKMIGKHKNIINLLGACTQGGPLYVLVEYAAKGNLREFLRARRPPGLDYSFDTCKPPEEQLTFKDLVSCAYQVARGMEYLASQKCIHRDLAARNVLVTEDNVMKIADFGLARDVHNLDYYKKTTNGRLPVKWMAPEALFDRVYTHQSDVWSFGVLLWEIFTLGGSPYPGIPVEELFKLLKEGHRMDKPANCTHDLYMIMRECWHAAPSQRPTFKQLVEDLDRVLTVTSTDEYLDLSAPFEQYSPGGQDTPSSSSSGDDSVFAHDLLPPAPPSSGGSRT
Test: phosphorylation enrichment, bacterial display (enrichment ratio); higher = better substrate or ligand; peptides without Tyr show the background
As shown below, each of these sequences has a reported phosphorylation enrichment value.
The response must contain the number and no unit.

SWSTSYSGYRC [NKAPL_Y91_Y96C]: 0.62
LTEHGYSFTTT [ACTB_Y198_R196H]: 1.09
EFISECCGEII [EZH2_Y641_Y641C]: 0.724
LLKNMYLMLDN [STAT1_Y203_K201N]: 1.65
HNVPIYEGFAL [ACTA1_Y168_YF]: 0.785
AHAGEYGAEAL [HBA1_Y25]: 0.517

Answer with the recorded phosphorylation enrichment for the sequence listed here: CNLDTYQKRLR [PLA2G2D_Y126_R121C]
0.462

Answer with the recorded phosphorylation enrichment for the sequence listed here: IRDLKYTIENP [SND1_Y178]
0.807

Answer with the recorded phosphorylation enrichment for the sequence listed here: FIPFRYPKEFQ [IDS_Y234_H229Y_YF]
0.516

====

Molecular target: Fes (UniProt P07332)
Sequence (P07332 whole entry, looked up): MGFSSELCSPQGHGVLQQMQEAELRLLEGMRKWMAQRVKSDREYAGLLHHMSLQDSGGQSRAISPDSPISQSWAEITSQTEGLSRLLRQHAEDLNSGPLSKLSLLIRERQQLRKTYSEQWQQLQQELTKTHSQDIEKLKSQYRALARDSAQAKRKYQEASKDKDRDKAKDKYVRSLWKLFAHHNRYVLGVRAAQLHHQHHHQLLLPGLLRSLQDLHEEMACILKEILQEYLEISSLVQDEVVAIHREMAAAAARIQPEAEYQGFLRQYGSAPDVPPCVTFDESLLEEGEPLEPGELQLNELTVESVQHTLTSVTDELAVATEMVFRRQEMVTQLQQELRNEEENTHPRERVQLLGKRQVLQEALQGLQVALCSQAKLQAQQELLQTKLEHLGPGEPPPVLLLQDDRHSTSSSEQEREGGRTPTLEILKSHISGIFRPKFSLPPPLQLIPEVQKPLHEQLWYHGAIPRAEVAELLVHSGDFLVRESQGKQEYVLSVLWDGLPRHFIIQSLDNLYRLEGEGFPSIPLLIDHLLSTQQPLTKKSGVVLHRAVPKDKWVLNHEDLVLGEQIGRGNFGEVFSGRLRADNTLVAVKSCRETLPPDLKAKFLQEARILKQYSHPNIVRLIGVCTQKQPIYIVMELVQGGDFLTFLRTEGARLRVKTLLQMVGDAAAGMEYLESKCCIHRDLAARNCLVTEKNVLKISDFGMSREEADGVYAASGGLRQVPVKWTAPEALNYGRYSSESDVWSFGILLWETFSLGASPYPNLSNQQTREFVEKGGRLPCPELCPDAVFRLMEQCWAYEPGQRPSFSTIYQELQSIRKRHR
Assay: phosphorylation enrichment, bacterial display (enrichment ratio); higher = better substrate or ligand; peptides without Tyr show the background
Parameter Measured: phosphorylation enrichment
The response must contain the number and no unit.

EFNINYNNELP [THG1L_Y228]: 0.829

Answer with the recorded phosphorylation enrichment for the sequence listed here: FEPWVYSLSYE [PRKDC_Y647_F649L]
1.49

Answer with the recorded phosphorylation enrichment for the sequence listed here: VQDPAYLRDIN [OPRK1_Y369_D374N]
0.974
